Assignment: determine reported pIC50 for the given compounds.
Test system: T-lymphoblastic leukemia cell line Molt-4
ASSAY PROCEDURE: Cell viability, trypan blue exclusion, Molt-4
Format: cell-based, human
ASSAY CONTEXT: 72 hours incubation
Worth noting: pIC50 values are minus log10 of concentrations stated in mol/L.

Q: Determine from records and report pIC50 for C=CCc1cccc(O)c1O
Ans: 4.70

Q: Determine from records and report pIC50 for C=CCc1ccc(OC(C)=O)c(OC(C)=O)c1 [Compound 7, 4-allyl-1,2-phenylene diacetate]
Ans: 4.82

Q: Determine from records and report pIC50 for C=CCc1ccc(O)c(O)c1CC=C
Ans: 4.30

Q: Determine from records and report pIC50 for CCOC(=O)/C=C/C(C)(C)c1ccc(O)c(O)c1
Ans: 4.35

Q: Determine from records and report pIC50 for C=CCc1cc(O)c(O)cc1CC=C
Ans: 4.52

Q: Determine from records and report pIC50 for C=CCc1ccc(O)c(O)c1
Ans: 4.52
